# testedSystem: T. brucei N-myristoyl transferase (Trypanosoma brucei brucei (strain 927/4 GUTat10.1))
# Sequence (Q388H8 1-446): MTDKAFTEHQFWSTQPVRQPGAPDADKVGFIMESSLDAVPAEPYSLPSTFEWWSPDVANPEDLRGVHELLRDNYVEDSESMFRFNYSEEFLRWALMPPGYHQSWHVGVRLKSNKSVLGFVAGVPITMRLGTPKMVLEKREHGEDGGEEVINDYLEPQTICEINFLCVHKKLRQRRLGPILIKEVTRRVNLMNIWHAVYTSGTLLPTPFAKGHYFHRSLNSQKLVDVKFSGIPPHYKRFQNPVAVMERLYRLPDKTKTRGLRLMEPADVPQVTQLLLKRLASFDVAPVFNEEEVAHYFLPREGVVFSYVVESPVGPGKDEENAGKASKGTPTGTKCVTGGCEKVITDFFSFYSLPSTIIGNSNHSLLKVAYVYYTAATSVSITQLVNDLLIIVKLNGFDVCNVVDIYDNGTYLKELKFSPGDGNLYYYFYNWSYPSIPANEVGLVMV
# measurementDescription: biochemical
# Assay type: biochemical
# conditionContext: value printed without enzyme tag in the NMT Enzyme column (taken as T. brucei NMT); read-out: IC50 (μM) NMT Enzyme
Items are presented alongside their recorded IC50.
measuredMetric: IC50

>>> result("COc1cc(C)c([S+](=O)([O-])Nc2c(C)nn(C)c2N2CCOCC2)c(C)c1C")
"> 100 µM"
>>> result("COc1cc(C)c([S+](=O)([O-])Nc2cc[nH]n2)c(C)c1C")
"> 100 µM"
>>> result("Cc1nn(C)c(C)c1N[S+](=O)([O-])c1ccc(NCC(c2ccccc2)c2ccccc2)nc1")
"13.6 µM"
>>> result("CCCn1ncc(N[S+](=O)([O-])c2c(C)cc(OC)c(C)c2C)n1")
"> 100 µM"
>>> result("COc1cc(C)c([S+](=O)([O-])Nc2cccnc2C)c(C)c1C")
"10 µM"
>>> result("Cc1nn(C)c(C)c1N[S+](=O)([O-])c1cccc2cccnc12")
"7.4 µM"
>>> result("Cc1nn(C)c(C)c1N[S+](=O)([O-])c1ccc(NCCN2CCOCC2)nc1")
"38.7 µM"
>>> result("Cc1nn(C)c(C)c1N[S+](=O)([O-])c1ccc2c(c1)CCC(=O)N2")
"3.4 µM"
>>> result("COc1cc(C)c([S+](=O)([O-])NCc2c(C)nn(C)c2C)c(C)c1C")
"> 100 µM"
>>> result("Cc1nn(C)c(C)c1N[S+](=O)([O-])c1ccc(CNc2ccc(-c3ccccn3)cc2)cc1")
"5.2 µM"
>>> result("Cc1nn(C)c(C)c1N[S+](=O)([O-])c1ccc(COc2ccc(C(C)(C)c3ccccc3)cc2)cc1")
"> 100 µM"
>>> result("COc1cc(C)c([S+](=O)([O-])Nc2ccccc2)c(C)c1C")
"> 100 µM"
>>> result("CCc1ccc(-c2cc(Cl)c([S+](=O)([O-])Nc3c(C)nn(C)c3C)c(Cl)c2)cc1")
"44.5 µM"
>>> result("COc1ccc([S+](=O)([O-])Nc2c(C)nn(C)c2C)cc1NC(C)=O")
"41 µM"
>>> result("COc1cc(C)c([S+](=O)([O-])Nc2c(C)cc(C)cc2C)c(C)c1C")
"> 100 µM"
>>> result("Cc1nn(C)c(C)c1N[S+](=O)([O-])c1ccc(C2OCCO2)cc1")
"9.5 µM"
